biological target: C72 murine anti-DNA antibody; assay: competitive inhibition ELISA: peptide in solution against binding of C72 to coated 5100
Observation type: IC50 (µg/mL)

KEGYKVQSDVNITLEFRTSSQ [5300 peptide, human R38] :: 85
KEGYKVRLDLNITLEFRTTSK [R38 peptide (5100), mouse R38] :: 10
KEGYKVRLDLNTTLEFRTTSK [5200 peptide (R38′), mouse R38 analog] :: 10

A. KEGYKVRLDLNITLEF [5101 peptide (Res. 1-16 of 5100)]
B. KEGYKVRLDLNITLEFETTSK [5107 peptide (charge subst. to neg. at 5100 a.a. 17)]
C. VRLDLNITLEFR [5102 peptide (Res. 6-17 of 5100)]
D. KAGYKVRLALNITLAFRTTSK [5108 peptide (Ala subst. of 5100 at all negative a.a.)]
Prompt line: hey, can you rank those binders up there by IC50? biggest number first please Please reply with the labels ordered as requested. Many thanks.
Response line: B, C, A, D
(B: 85 µg/mL, C: 30 µg/mL, A: 5 µg/mL, D: 2 µg/mL)

1. KEGYKVELDLNITLEFRTTSK [5106 peptide (charge subst. to neg. at 5100 a.a. 7)]
2. KEGYKVRLALNITLEFRTTSK [5109 peptide (Ala subst. of 5100 a.a. 9)]
Prompt line: // task: argmin of IC50 over [ 1 , 2 ] Reply with the label of the item you choose.
Response line: 2
